# credit: PubChem BioAssay (NCI)

experiment: NCI Yeast Anticancer Drug Screen. Data for the rad50EPP+ strain (AID 151);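 further: 0% = growth of vehicle-treated control cultures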; conditions: S. cerevisiae rad50 mutant strain, at 3.7 µM, hits give high values
The panel holds about 79,000 compounds, 15% with a hit somewhere; the sample as a whole holds those more often.
endpoint-label: growth inhibition (%)
Use % as the unit, but write only the number.

- compound: "N=c1oc2ccccc2cc1-c1nc2ccccc2[nH]1"
  endpoint-label: "growth inhibition"
  reported-measurement: 48

Let us examine a further case.
Given the compound O=C1c2ccccc2-c2ccc(NC(=O)C3CCCCC3C(=O)O)cc21 (stereo not drawn) , what is its reported growth inhibition? 15

====

assay: NCI Yeast Anticancer Drug Screen. Data for the mlh1 rad18 strain (AID 175); conditions: S. cerevisiae mlh1 rad18 strain growth inhibition; at 50.0 µM; hits give high values
This is part of a sample that, as a whole, favours compounds with a hit. Of some 79,000 tested, about 15% had one in any assay.
Would you please tag the item true when its growth inhibition is 50% or above, and false when it is below?

- compound: "Cc1ccc2c(/C=C/c3ccc(N(C)C)cc3)ccnc2c1C"
  label-value: "true"

Quick check, growth inhibition >= 50%? `c1cc(Nc2ccc3c(c2)OCO3)c2cc(C3CCCCC3)ccc2n1` true

Queued: CCCCCCC(CCl)c1sc(-c2csc(CCNC(=O)OC(C)(C)C)n2)nc1C(=O)OC (stereo not drawn) false

Entry to check: `CCCCCC/C(C)=N/Nc1ccc([N+](=O)[O-])cc1[N+](=O)[O-]` false

Thanks! And `O=C(O)[C@H]1[C@@H](C2CCCCC2)O[C@@H](C2CCCCC2)O[C@H]1C(F)(F)F` ? true

Same question for `c1cncc(C(Nc2cccc3cccnc23)Nc2cccc3cccnc23)c1` please. true

Next entry: `Cc1[nH]nc(C(F)(F)F)c1N=NN(C)C` true

Follow-up entry: `CN(C)CCC(=O)c1c[nH]c2ccccc12` false
